# measurement-target: T1, DcR3 (UniProt O95407 30-300, limits assumed)
# T1 construct: the construct is not described; also called decoy receptor DcR3; TNFRSF6B
# T1 sequence (looked up): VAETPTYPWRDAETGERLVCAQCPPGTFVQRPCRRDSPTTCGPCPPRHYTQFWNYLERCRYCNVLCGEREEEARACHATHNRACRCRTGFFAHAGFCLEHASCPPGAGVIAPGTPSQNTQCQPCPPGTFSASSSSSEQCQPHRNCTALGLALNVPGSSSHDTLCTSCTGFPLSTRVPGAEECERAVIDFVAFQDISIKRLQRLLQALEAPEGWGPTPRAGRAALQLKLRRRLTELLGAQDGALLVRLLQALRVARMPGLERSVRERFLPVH
# experiment-description: ELISA, DcR3
Below, each entry is listed with its recorded EC50.
Number in nM, nothing else.

TL1W131 (His-TEV-TL1A Y238E) (ligand, also called TL1W131 (Y238E)) HHHHHHENLYFQGLKGQEFAPSHQQVYAPLRADGDKPRAHLTVVRQTPTQHFKNQFPALHWEHELGLAFTKNRMNYTNKFLLIPESGDYFIYSQVTFRGMTSECSEIRQAGRPNKPDSITVVITKVTDSYPEPTQLLMGTKSVCEVGSNWFQPIYLGAMFSLQEGDKLMVNVSDISLVDETKEDKTFFGAFLL | 6.6

Entry TL1W130 (His-TEV-TL1A Y238R) (ligand, also called TL1W130 (Y238R)) HHHHHHENLYFQGLKGQEFAPSHQQVYAPLRADGDKPRAHLTVVRQTPTQHFKNQFPALHWEHELGLAFTKNRMNYTNKFLLIPESGDYFIYSQVTFRGMTSECSEIRQAGRPNKPDSITVVITKVTDSYPEPTQLLMGTKSVCEVGSNWFQPIYLGAMFSLQEGDKLMVNVSDISLVDRTKEDKTFFGAFLL : reported EC50 = ? 16.9
